FYI, the data here is from PubChem BioAssay AID2060507.

- Tested on: 519858-162-T-J1-PDC complex spheroid viability;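 note: spheroids exposed to compounds for 7 days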
- Test Summary: Anticancer human tumor 519858-162-T-J1-PDC patient-derived colon adenocarcinoma cell line growth inhibition [GQUAD]
- Conditions Used: second compound 1 µM; first compound 0.316 µM; hits give low values
Entries whose viability, T/C is below 60% take rule met; entries at or above 60% take rule not met.

COc1ccc([C@@H](O)c2cc(-c3ncnc4cc(N5CCOCC5)ccc34)c(F)cc2Cl)nn1 + Cc1cnc(CNC(=O)c2c(=O)c3ccc(N4CCCN(C)CC4)nc3n3c2sc2ccccc23)cn1 | rule met
O=C(NO)c1cnc(N2CCN(S(=O)(=O)c3ccc4ccccc4c3)CC2)nc1 + Cc1[nH]c2ccc(F)cc2c1-c1nc2c3cccnc3c3ncccc3c2[nH]1 | rule met
CCc1c2c(nc3ccc(O)cc13)-c1cc3c(c(=O)n1C2)COC(=O)[C@]3(O)CC + Cc1cnc(CNC(=O)c2c(=O)c3ccc(N4CCCN(C)CC4)nc3n3c2sc2ccccc23)cn1 | rule not met
CC(C)(O)C1CCC(Nc2ccc3ncc(-c4cccc(C(F)(F)F)c4)n3n2)CC1 (stereo not given) + Cc1cnc(CNC(=O)c2c(=O)c3ccc(N4CCCN(C)CC4)nc3n3c2sc2ccccc23)cn1 | rule met
CC1COCCN1c1cc(C2(O)CC3CCC(C2)O3)c2cnn(-c3ccn[nH]3)c2n1 (stereo not given) + Cc1cnc(CNC(=O)c2c(=O)c3ccc(N4CCCN(C)CC4)nc3n3c2sc2ccccc23)cn1 | rule met
CC[C@@]1(O)C(=O)OCc2c1cc1n(c2=O)Cc2cc3c(CN(C)C)c(O)ccc3nc2-1 + Cc1cnc(CNC(=O)c2c(=O)c3ccc(N4CCCN(C)CC4)nc3n3c2sc2ccccc23)cn1 | rule not met
O=C(c1cc(Cc2n[nH]c(=O)c3ccccc23)ccc1F)N1CCN(C(=O)C2CC2)CC1 + Cc1[nH]c2ccc(F)cc2c1-c1nc2c3cccnc3c3ncccc3c2[nH]1 | rule not met
CC(=O)O[C@H]1C(=O)[C@@]2(C)[C@H]([C@H](OC(=O)c3ccccc3)[C@]3(O)C[C@H](OC(=O)[C@H](O)[C@@H](NC(=O)c4ccccc4)c4ccccc4)C(C)=C1C3(C)C)[C@]1(OC(C)=O)CO[C@@H]1C[C@@H]2O + Cc1cnc(CNC(=O)c2c(=O)c3ccc(N4CCCN(C)CC4)nc3n3c2sc2ccccc23)cn1 | rule met

Problem: For the molecule CC1COCCN1c1cc(-c2ccnn2C)c2ccnc(-c3ccn[nH]3)c2n1 (stereo not given) + CN(C)c1ccc(Nc2c3ccc(NC(=O)CCN4CCCC4)cc3nc3cc(NC(=O)CCN4CCCC4)ccc23)cc1 , is viability, T/C under 60%? rule not met

Please give the result for O=C(NO)c1cnc(N2CCN(S(=O)(=O)c3ccc4ccccc4c3)CC2)nc1 + Cc1cnc(CNC(=O)c2c(=O)c3ccc(N4CCCN(C)CC4)nc3n3c2sc2ccccc23)cn1 too. rule met

Please give the result for C#Cc1c(F)ccc2cc(O)cc(-c3ncc4c(N5CC6CCC(C5)N6)nc(OCC56CCCN5CC(F)C6)nc4c3F)c12 (stereo not given) + Cc1cnc(CNC(=O)c2c(=O)c3ccc(N4CCCN(C)CC4)nc3n3c2sc2ccccc23)cn1 too. rule not met

Please give the result for CC1COCCN1c1cc(C2(S(C)(=N)=O)CC2)nc(-c2ccnc3[nH]ccc23)n1 (stereo not given) + Cc1[nH]c2ccc(F)cc2c1-c1nc2c3cccnc3c3ncccc3c2[nH]1 too. rule not met

Please give the result for O=c1[nH]cc(F)c(=O)[nH]1 + Cc1[nH]c2ccc(F)cc2c1-c1nc2c3cccnc3c3ncccc3c2[nH]1 too. rule not met
